The measurements presented in this section are drawn from patent US20040044006A1.

Collected MIC values appear next to each entry.
Tested on: pneumococci with ciprofloxacin MICs ≧8 μg/ml
Method: Quinolone agar dilution MICs of 28 ciprofloxacin resistant pneumococcal strains, correlated with QRDR mutations
Assay type: cell-based, Streptococcus pneumoniae
Study conditions: Streptococcus pneumoniae, strain 12; ParC S79-F, ParE I460-V, GyrA None, GyrB D435-N
Hi! Could you send only the number? It should be in µg/mL, unit omitted.

Molecule	MIC / µg/mL
CO/N=C1\CN(c2nc3c(cc2F)c(=O)c(C(=O)O)cn3C2CC2)CC1CN (racemic)	0.125
N[C@@H]1[C@H]2CN(c3nc4c(cc3F)c(=O)c(C(=O)O)cn4-c3ccc(F)cc3F)C[C@@H]12	1
Cc1c(F)c(N2CCNC(C)C2)cc2c1c(=O)c(C(=O)O)cn2C1CC1 (stereo not shown)	4

Proceed to the following item.
Data request: Provide MIC value for the following molecule: C[C@@H]1CN(c2c(F)c(N)c3c(=O)c(C(=O)O)cn(C4CC4)c3c2F)C[C@H](C)N1
Data returned: 1

====

Tested on: quinolone-resistant Haemophilus influenzae strains
Method: Microdilution MIC determination in HTM for quinolone-resistant Haemophilus influenzae strains
Assay type: cell-based
Study conditions: strain 3; mutations S84-I, None, S84-L
Recorded endpoint: MIC (µg/mL)
Hi! Could you send only the number? It should be in µg/mL, unit omitted.

Molecule	MIC, µg/mL
N[C@@H]1[C@H]2CN(c3nc4c(cc3F)c(=O)c(C(=O)O)cn4-c3ccc(F)cc3F)C[C@@H]12 [Trova]	1
C[C@@H]1CN(c2c(F)c(N)c3c(=O)c(C(=O)O)cn(C4CC4)c3c2F)C[C@H](C)N1 [Spar]	0.5
Cc1c(F)c(N2CCNC(C)C2)cc2c1c(=O)c(C(=O)O)cn2C1CC1 (centres unmarked) [Grepa]	0.5
C[C@H]1COc2c(N3CCN(C)CC3)c(F)cc3c(=O)c(C(=O)O)cn1c23 [Levo]	1

Proceed to the following item.
Data request: Please report MIC with quinolone-resistant Haemophilus influenzae strains for item CO/N=C1\CN(c2nc3c(cc2F)c(=O)c(C(=O)O)cn3C2CC2)CC1CN (centres unmarked) [Gemi] .
Data returned: 0.125

====

Collected MIC values appear next to each entry.
System: pneumococcal strains
Method: Microbroth dilution MICs of strains tested by time-kill and PAE
Format: cell-based
Study conditions: Streptococcus pneumoniae, strain 9 (R) penicillin resistant; read-out: Microdilution MIC
Procedure: Agar dilution methodology was performed on 234 strains as described previously (M. R. Jacobs, Clin. Infect. Dis. 15:119-127, 1992; Jacobs, et al., Rev. Med. Microbiol. 6:77-93, 1995), using Mueller-Hinton agar (BBL Microbiology Systems, Cockeysville, Md.) supplemented with 5% sheep blood. […]

Worked examples, 3 compounds total:
Compound	Result
CC1(C)S[C@@H]2[C@H](NC(=O)Cc3ccccc3)C(=O)N2[C@H]1C(=O)O [Penicillin, penicillin G]	4 µg/mL
C[C@@H]1CN(c2c(F)c(N)c3c(=O)c(C(=O)O)cn(C4CC4)c3c2F)C[C@H](C)N1 [Sparfloxacin, sparfloxacin]	0.5 µg/mL
CC[C@H]1OC(=O)[C@H](C)[C@@H](O[C@H]2C[C@@](C)(OC)[C@@H](O)[C@H](C)O2)[C@H](C)[C@@H](O[C@@H]2O[C@H](C)C[C@H](N(C)C)[C@H]2O)[C@](C)(O)C[C@@H](C)CN(C)[C@H](C)[C@@H](O)[C@]1(C)O [Azithromycin, azithromycin]	> 64 µg/mL

Data request: Provide MIC value for the following compound: Cc1c(F)c(N2CCNC(C)C2)cc2c1c(=O)c(C(=O)O)cn2C1CC1 (stereo not drawn) [Grepafloxacin, grepafloxacin]
Data returned: 0.25 µg/mL

Data request: Provide MIC value for the following compound: N[C@@H]1[C@H]2CN(c3nc4c(cc3F)c(=O)c(C(=O)O)cn4-c3ccc(F)cc3F)C[C@@H]12 [Trovafloxacin, trovafloxacin]
Data returned: 0.125 µg/mL

Data request: Provide MIC value for the following compound: C[C@H]1COc2c(N3CCN(C)CC3)c(F)cc3c(=O)c(C(=O)O)cn1c23 [Levofloxacin, levofloxacin]
Data returned: 2 µg/mL
